Observed Ki for 5-hydroxytryptamine receptor 1A (Homo sapiens, UniProt P08908), reported per entry below.
The answer consists of two parts: a number and, after it, its unit.

compound: COc1ccccc1N1CCN(CCCN2C(=O)C[C@H](NC(=O)C3CCCCC3)C2=O)CC1
reported: 230 nM

compound: COc1ccccc1N1CCN(CCCN2C(=O)C[C@H](NC(=O)C34CC5CC(CC(C5)C3)C4)C2=O)CC1
reported: 63 nM

compound: COc1ccccc1N1CCN(CCCN2C(=O)C[C@H](NC(C)=O)C2=O)CC1
reported: 480 nM

compound: COc1ccccc1N1CCN(CCCCNC(=O)[C@@H]2CCC(=O)N2C(=O)CC2CC3CCC2C3)CC1 (stereo partly specified)
reported: 12 nM

compound: COc1ccccc1N1CCN(CCCCN2C(=O)C[C@H](NC(=O)C34CC5CC(CC(C5)C3)C4)C2=O)CC1
reported: 15 nM

compound: COc1ccccc1N1CCN(CCCCNC(=O)[C@@H]2CCCN2C(=O)CC2CC3CCC2C3)CC1 (stereo partly specified)
reported: 12 nM

compound: COc1ccccc1N1CCN(CCCCN2C(=O)C[C@@H](NC(=O)C34CC5CC(CC(C5)C3)C4)C2=O)CC1
reported: 9 nM

compound: COc1ccccc1N1CCN(CCCCN2C(=O)C[C@H](NC(=O)c3ccccc3)C2=O)CC1
reported: 50 nM

I'm curious: which Ki was measured for `COc1ccccc1N1CCN(CCCN2C(=O)C[C@H](NC(=O)c3ccccc3)C2=O)CC1` tested on 5-hydroxytryptamine receptor 1A (Homo sapiens, UniProt P08908)?
260 nM

I'm curious: which Ki was measured for `COc1ccccc1N1CCN(CCCCN2C(=O)C[C@H](NC(=O)C3CCCC3)C2=O)CC1` tested on 5-hydroxytryptamine receptor 1A (Homo sapiens, UniProt P08908)?
40 nM

I'm curious: which Ki was measured for `COc1ccccc1N1CCN(CCCN2C(=O)C[C@H](NC(=O)C3CCCC3)C2=O)CC1` tested on 5-hydroxytryptamine receptor 1A (Homo sapiens, UniProt P08908)?
170 nM
